# System: SW480
# assay_details: Cytotoxicity against human SW480 cells assessed as inhibition of cell proliferation after 48 hrs by MTT assay
# Format: functional, cell-based
# test_parameters: SW480, 48 h
Below, each entry is listed with its recorded IC50.

{"compound": "Nc1nc(N2CCOCC2)sc1C(=O)c1cc2ccccc2oc1=O", "experimental_target": "SW480", "units_text": "µg/mL", "IC50": 20.5}
{"compound": "Nc1nc(N2CCSCC2)sc1C(=O)c1cc2cc(Br)ccc2oc1=O", "experimental_target": "SW480", "units_text": "µg/mL", "IC50": 44.5}
{"compound": "Nc1nc(N2CCN(Cc3ccccc3)CC2)sc1C(=O)c1cc2ccccc2oc1=O", "experimental_target": "SW480", "units_text": "µg/mL", "IC50": 23.4}
{"compound": "Nc1nc(N2CCSCC2)sc1C(=O)c1cc2ccccc2oc1=O", "experimental_target": "SW480", "units_text": "µg/mL", "IC50": 13}
{"compound": "Nc1nc(N2CCOCC2)sc1C(=O)c1cc2cc(Br)ccc2oc1=O", "experimental_target": "SW480", "units_text": "µg/mL", "IC50": 48.7}
{"compound": "COc1cc([C@@H]2c3cc4c(cc3[C@@H](O[C@@H]3O[C@@H]5CO[C@@H](C)O[C@H]5[C@H](O)[C@H]3O)[C@H]3COC(=O)[C@H]23)OCO4)cc(OC)c1O [ETOPOSIDE]", "experimental_target": "SW480", "units_text": "µg/mL", "IC50": 7.7}

* * *

Below, each entry is listed with its recorded IC50.
# System: MCF7
# assay_details: Cytotoxicity against human MCF7 cells assessed as inhibition of cell proliferation after 48 hrs by MTT assay
# Assay type: functional, cell-based
# test_parameters: MCF7, 48 h

{"compound": "Nc1nc(N2CCSCC2)sc1C(=O)c1cc2cc(Br)ccc2oc1=O", "IC50 (µg/mL)": 12.5}
{"compound": "COc1cc([C@@H]2c3cc4c(cc3[C@@H](O[C@@H]3O[C@@H]5CO[C@@H](C)O[C@H]5[C@H](O)[C@H]3O)[C@H]3COC(=O)[C@H]23)OCO4)cc(OC)c1O [ETOPOSIDE]", "IC50 (µg/mL)": 3.1}
{"compound": "Nc1nc(N2CCOCC2)sc1C(=O)c1cc2ccccc2oc1=O", "IC50 (µg/mL)": 9.8}
{"compound": "Nc1nc(N2CCOCC2)sc1C(=O)c1cc2cc(Br)ccc2oc1=O", "IC50 (µg/mL)": 14.6}
{"compound": "Nc1nc(N2CCSCC2)sc1C(=O)c1cc2ccccc2oc1=O", "IC50 (µg/mL)": 7.5}
{"compound": "Nc1nc(N2CCN(Cc3ccccc3)CC2)sc1C(=O)c1cc2ccccc2oc1=O", "IC50 (µg/mL)": 11.6}

* * *

Below, each entry is listed with its recorded Activity.
# assay_details: Antioxidant activity assessed as ferric ion reduction by measuring FeSO4 equivalents reducing Fe3+-TPTZ to Fe2+-TPTZ at 40 ug/ml after 25 mins by FRAP assay
# Assay type: functional
quantity: Activity (µMequiv)

{"sample_smiles": "Nc1nc(N2CCOCC2)sc1C(=O)c1cc2cc(Br)ccc2oc1=O", "units_text": "µMequiv", "meas_value": 162}
{"sample_smiles": "Nc1nc(N2CCSCC2)sc1C(=O)c1cc2ccccc2oc1=O", "units_text": "µMequiv", "meas_value": 266}
{"sample_smiles": "O=C1O[C@H]([C@@H](O)CO)C(O)=C1O", "units_text": "µMequiv", "meas_value": 310}
{"sample_smiles": "Nc1nc(N2CCSCC2)sc1C(=O)c1cc2cc(Br)ccc2oc1=O", "units_text": "µMequiv", "meas_value": 94.3}
{"sample_smiles": "Nc1nc(N2CCOCC2)sc1C(=O)c1cc2ccccc2oc1=O", "units_text": "µMequiv", "meas_value": 345}
{"sample_smiles": "Nc1nc(N2CCN(Cc3ccccc3)CC2)sc1C(=O)c1cc2ccccc2oc1=O", "units_text": "µMequiv", "meas_value": 226}

The reported numbers originate from ChEMBL document CHEMBL4152306.
